# test_method_notes: clinical
# condition: human, in vivo, iv
parameter_measured: clearance (mL/min)
Please state the figure in mL/min; there is no need to write the unit.

Consider the compound CN1CC[C@H](c2c(O)cc(O)c3c(=O)cc(-c4ccccc4Cl)oc23)[C@H](O)C1 [flavopiridol] and give its measured clearance. 568

###

# test_method_notes: clinical
# condition: human, in vivo
parameter_measured: Vd (L)
Report the value in L with no unit label.

May I ask what Vd has been recorded for CN1CC[C@H](c2c(O)cc(O)c3c(=O)cc(-c4ccccc4Cl)oc23)[C@H](O)C1 [flavopiridol] ? 75.8

The measurements presented in this section are drawn from paper PMC3845832.
